The measured values listed here are drawn from patent US20150320880A1.

# target desc: mouse cKIT ECD
# Sequence (P05532 25-512 limits assumed): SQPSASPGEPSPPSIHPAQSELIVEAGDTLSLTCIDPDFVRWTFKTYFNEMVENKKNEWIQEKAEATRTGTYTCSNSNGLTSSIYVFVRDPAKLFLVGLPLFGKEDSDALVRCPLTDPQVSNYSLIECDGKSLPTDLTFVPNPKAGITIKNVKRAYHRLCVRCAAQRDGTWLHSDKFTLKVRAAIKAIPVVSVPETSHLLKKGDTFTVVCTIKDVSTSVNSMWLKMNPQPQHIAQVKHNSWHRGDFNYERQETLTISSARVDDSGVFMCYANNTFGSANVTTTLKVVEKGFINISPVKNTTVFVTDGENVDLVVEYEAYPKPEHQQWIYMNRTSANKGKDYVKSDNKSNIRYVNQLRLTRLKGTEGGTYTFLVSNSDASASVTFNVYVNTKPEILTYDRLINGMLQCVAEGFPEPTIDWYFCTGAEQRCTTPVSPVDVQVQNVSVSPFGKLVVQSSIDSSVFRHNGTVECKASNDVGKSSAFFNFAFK
# experiment: SPR (Biacore 2000) affinity measurement
# Assay type: binding
# condition parameters: 25° C.
quantity name: Affinity mouse cKIT (nM)

molecule="NEG086: anti-cKIT antibody of Table 1; VH SEQ ID NO 100, VL SEQ ID NO 109 (antibody, V domains shown) VH: EVQLVESGGGLVQPGGSLRLSCAASGFTFSDYYMAWVRQAPGKGLEWVANINQIAGSTYYVDSVQGRFTISRDNAKNSLYLQMNSLRAEDTAVYYCARGDYYGTTYWYFDVWGQGTTVTVSS VL: DIQMTQSPSSLSASVGDRVTITCRASQSISSYLNWYQQKPGKAPKLLIYYTSRLQSGVPSRFSGSGSGTDFTLTISSLQPEDFATYYCQQGRRLWSFGGGTKVEIK" result="Not reactive"
molecule="NEG027: anti-cKIT antibody of Table 1; VH SEQ ID NO 64, VL SEQ ID NO 73 (antibody, V domains shown) VH: EVQLVESGGGLVQPGGSLRLSCAASGFTFSDYYMAWVRQAPGKGLEWVASINQNTGSTYYLDSVRGRFTISRDNAKNSLYLQMNSLRAEDTAVYYCARGDYYGTTYWYFDVWGQGTTVTVSS VL: EIVMTQSPATLSLSPGERATLSCRASQDISNYLNWYQQKPGQAPRLLIYYTSRLQSGIPARFSGSGSGTDYTLTISSLEPEDFAVYYCQQGKKLWSFGGGTKVEIK" result="Not reactive"
molecule="anti-cKIT antibody 9P3 (antibody, V domains shown, Hybridoma-derived mouse variable domains; also called murine 9P3) VH: EVRLVESEGGLVQPRSSMKLSCTASGFTFSDYYMAWVRQVPEKGLEWVANINYDGSSTYYLDSLKSRFIISRDNAKNILYLQMSSLKSEDTATYYCARGDYYGTTYWYFDVWGTGTTVTVSS VL: DIQMTQTTSSLSASLGDRVTISCRASQDISNYLNWYQQKPDGTVKLLIYYTSRLQSGVPSRFSGSGSGTDYSLTISNLEQEDIATYFCQQGKKLWSFGGGTKLEIKR" result="Not reactive"
molecule="NEG087: anti-cKIT antibody of Table 1; VH SEQ ID NO 118, VL SEQ ID NO 127 (antibody, V domains shown) VH: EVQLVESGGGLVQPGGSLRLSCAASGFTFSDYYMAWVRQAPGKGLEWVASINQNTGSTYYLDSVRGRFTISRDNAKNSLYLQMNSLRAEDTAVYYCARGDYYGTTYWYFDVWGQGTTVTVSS VL: DIQMTQSPSSLSASVGDRVTITCRASQSISSYLNWYQQKPGKAPKLLIYYTSRLQSGVPSRFSGSGSGTDFTLTISSLQPEDFATYYCQQGRRLWSFGGGTKVEIK" result="Not reactive"
molecule="NEG026: anti-cKIT antibody of Table 1; VH SEQ ID NO 46, VL SEQ ID NO 55 (antibody, V domains shown) VH: EVQLVESGGGLVQPGGSLRLSCAASGFTFSDYYMAWVRQAPGKGLEWVANINQNTGSTYYVDSVQGRFTISRDNAKNSLYLQMNSLRAEDTAVYYCARGDYYGTTYWYFDVWGQGTTVTVSS VL: EIVMTQSPATLSLSPGERATLSCRASQDISNYLNWYQQKPGQAPRLLIYYTSRLQSGIPARFSGSGSGTDYTLTISSLEPEDFAVYYCQQGKKLWSFGGGTKVEIK" result="Not reactive"
